# Test system: P388 leukemia ip, CD2F1 mice, survival T/C
# ASSAY_PROCEDURE: NCI In Vivo Anticancer Drug Screen. Data for tumor model P388 Leukemia (intraperitoneal) in CD2F1 (CDF1) mice
# CONDITION_SET: endpoint: median survival time; dose: 100.0 mg/kg/injection; schedule: Q01DX005 (ip); vehicle: saline with Tween-80; higher = longer survival
Toxic doses and inconclusive results are not listed.

| MOLECULE | T/C |
| --- | --- |
| CCOC(=O)c1c(C(=O)Nc2ccccc2)c(-c2ccccc2)n(NC(N)=O)c1C | 105 % of control |
| CSCNC(=O)Nc1ccccc1 | 100 % of control |
| NC(N)=NCCCC1NC(=O)C(Cc2ccc(O)cc2)NC1=O (configuration not stated) | 100 % of control |
| O=C(N/C(=C\c1ccccc1)C(=O)N1CCNCC1)c1ccccc1 | 89 % of control |
| Cn1nc(C(N)=O)c(=O)[nH]c1=S | 99 % of control |
| Cn1c(N(CCN2CCOCC2)C(=O)/C=C\c2ccccc2)cc(=O)n(C)c1=O | 100 % of control |
| CC(C)CN1CC(=O)N2Cc3ccccc3CN2C(=O)C1 | 106 % of control |
| Cc1cc(Br)ccc1N1CSC(=S)N(c2ccc(Br)cc2C)C1 | 90 % of control |
| c1ccc2c(-c3nc4ccccc4c4ccccc34)cccc2c1 | 108 % of control |
| COc1cc(C2c3cc4c(cc3CCN2C)OCO4)cc(OC)c1OC (configuration not stated) | 94 % of control |
| CC1(C)OC2(C)CCC1C1C2N1C(=O)Nc1ccccc1 (configuration not stated) | 106 % of control |
| CC(C)CC(C)C1CCC(C)C1CCC(C)OC=O (configuration not stated) | 114 % of control |
| CSc1nc(SC)c2c(C)cn(C3OC(C)C(O)C(O)C3O)c2n1 (configuration not stated) | 94 % of control |
| c1nc(N2CCCCC2)c2c3c(sc2n1)CCCC3 | 91 % of control |
| CC(C)(C)OC(=O)NC(CCC(=O)OCc1ccccc1)C(=O)ON1C(=O)CCC1=O (configuration not stated) | 114 % of control |
| COC(=O)C(CO)NC(=O)C(Cc1cnc[nH]1)N(C(=O)OCc1ccccc1)C(=O)OCc1ccccc1 (configuration not stated) | 96 % of control |
| C/C(N=NC(=S)N1CCCC1)=C1\C=CC=CN1O | 103 % of control |
| COc1ccc(CC(=O)c2ccc3c(c2O)C=CC(C)(C)O3)cc1OC | 99 % of control |
| Cc1nn(C(=S)S)c(C)c1N=Nc1cccc(F)c1 | 111 % of control |
| CCCN=C1NS(=O)(=O)c2ccccc21 | 98 % of control |
| O=C1CN(CCN2CCCCC2)CC(=O)N2CCCCN12 | 107 % of control |
| O=C1CN(CCO)CC(=O)N2Cc3ccccc3CN12 | 111 % of control |
| CC(C)(C)c1ccc(NC(=O)c2ccccc2N)cc1 | 97 % of control |
| C/C(=N\Nc1cccc2ccccc12)c1ccccn1 | 103 % of control |
| c1ccc(CN=C(Nc2ccc(C3=NCCN3)cc2)c2cccc(C(=NCc3ccccc3)Nc3ccc(C4=NCCN4)cc3)c2)cc1 | 104 % of control |
| CCOC(=O)c1c(C(C)=O)cnc2c(C#N)cnn12 | 98 % of control |
| CCOC(=O)CC(C)P(c1ccccc1)C(C)CC(=O)OCC (configuration not stated) | 99 % of control |
| O=C(NC(=O)c1ccccc1Cl)Nc1ccc(C(O)(C(F)(F)F)C(F)(F)F)cc1 | 102 % of control |
| COC(=O)C(Cc1c[nH]c2ccccc12)NC(=O)C(Cc1cnc[nH]1)N(C(=O)OCc1ccccc1)C(=O)OCc1ccccc1 (configuration not stated) | 89 % of control |
| Nc1ncc2c(n1)CCCC2 | 98 % of control |
| O=[N+]([O-])c1ccc(Sc2c3ccccc3nc3ccccc23)cn1 | 104 % of control |
| O=c1c2[nH]c3ccccc3sc=2c(=O)n1-c1cccc(Cl)c1 | 102 % of control |
| COC(=O)c1[nH]c(=S)[nH]c(=O)c1C | 97 % of control |
| CCOC(=O)C(C)c1ccccc1-c1cccc(OC)c1 (configuration not stated) | 97 % of control |
| COc1cc2c(Cl)ncnc2c(OC)c1OC | 106 % of control |
| Brc1ccc(-n2c(-c3ccccc3)cs/c2=N\Nc2nnc(-c3ccccc3)c(-c3ccccc3)n2)cc1 | 87 % of control |
| COC(=O)C1=C(C(=O)OC)C2CC3C4CC=C5CC(OC(C)=O)CCC5(C)C4CCC3(C)C2=C(OC(C)=O)C1 (configuration not stated) | 87 % of control |

###

# Tested on: P388 leukemia ip, CD2F1 mice, survival T/C
# ASSAY_PROCEDURE: NCI In Vivo Anticancer Drug Screen. Data for tumor model P388 Leukemia (intraperitoneal) in CD2F1 (CDF1) mice
# CONDITION_SET: endpoint: median survival time; dose: 50.0 mg/kg/injection; schedule: Q01DX009 (ip); vehicle: saline
Inconclusive results and toxic doses are left out. How the source made its calls: active means survival T/C of 150% or more; inactive means T/C below 125% in these data.
Outcome codes: YES for active, NO for inactive

| COMPOUND | SYSTEM | CLASS_NAME |
| --- | --- | --- |
| CCOC(=O)c1ccccn1 | P388 leukemia ip, CD2F1 mice, survival T/C | NO |
| CC12CCC(C/C1=N\[N+](=O)[O-])C2(C)C (stereo not given) | P388 leukemia ip, CD2F1 mice, survival T/C | NO |
| C=C(NC(=O)C(=C)NC(=O)c1csc(C2=NC3c4csc(n4)C4NC(=O)c5csc(n5)C(C(C)(O)C(C)O)NC(=O)C5CSC(=N5)/C(=C/C)NC(=O)C(C(C)O)NC(=O)c5csc(n5)C3(CC2)NC(=O)C(C)NC(=O)C(=C)NC(=O)C(=C)NC(=O)C(C(C)C)NC2C=Cc3c(C(C)O)cc(nc3C2O)C(=O)OC4C)n1)C(N)=O (stereo not given) | P388 leukemia ip, CD2F1 mice, survival T/C | YES |
| COC1OC(CO)C(O)C(O)C1O (stereo not given) | P388 leukemia ip, CD2F1 mice, survival T/C | NO |
| CCOC(=O)NCP(Cl)(CNC(=O)OCC)(CNC(=O)OCC)CNC(=O)OCC | P388 leukemia ip, CD2F1 mice, survival T/C | NO |

###

# Test system: P388 leukemia ip, CD2F1 mice, survival T/C
# ASSAY_PROCEDURE: NCI In Vivo Anticancer Drug Screen. Data for tumor model P388 Leukemia (intraperitoneal) in CD2F1 (CDF1) mice
# CONDITION_SET: endpoint: median survival time; dose: 25.0 mg/kg/injection; schedule: Q01DX009 (ip); vehicle: saline with Tween-80; higher = longer survival
Inconclusive results and toxic doses are left out.
Listed below: T/C values for each entry.

| COMPOUND | SYSTEM | T/C |
| --- | --- | --- |
| CCOc1ccccc1N=Cc1c2ccccc2cc2ccccc12 | P388 leukemia ip, CD2F1 mice, survival T/C | 95 % of control |
| C/C=C/[Se]c1ccccc1 | P388 leukemia ip, CD2F1 mice, survival T/C | 103 % of control |
| COc1cc(/C=C/c2nnc3c4ccccc4cnn23)cc(OC)c1OC | P388 leukemia ip, CD2F1 mice, survival T/C | 100 % of control |
| CC(NCCCSc1ccccc1)C(O)c1ccc(O)cc1 (centres undefined) | P388 leukemia ip, CD2F1 mice, survival T/C | 94 % of control |

###

# System: P388 leukemia ip, CD2F1 mice, survival T/C
# ASSAY_PROCEDURE: NCI In Vivo Anticancer Drug Screen. Data for tumor model P388 Leukemia (intraperitoneal) in CD2F1 (CDF1) mice
# CONDITION_SET: endpoint: median survival time; dose: 50.0 mg/kg/injection; schedule: Q01DX009 (ip); vehicle: saline with Tween-80; higher = longer survival
Toxic doses and inconclusive results are not listed.
Listed below: T/C values for each entry.
QUANTITY_KIND: T/C

| COMPOUND_STRUCTURE_STRING | QUANTITY_KIND | RESULT |
| --- | --- | --- |
| Cc1cc(C)c([N+](=O)[O-])c([N+](=O)[O-])c1C | T/C | 101 % of control |
| Cn1nc([N+](=O)[O-])nc1-c1ccccc1 | T/C | 106 % of control |
| O=[N+]([O-])c1ccc2c(c1)sc1cc([N+](=O)[O-])c(Br)cc12 | T/C | 104 % of control |
| CCC(SC)(SC)C(=O)N(C)c1ccccc1 | T/C | 104 % of control |
| Nc1ccc(/C=C/c2ccc3ncccc3c2)cc1 | T/C | 97 % of control |
